- testDetails: CMV-Luciferase Counterscreen for Inhibitors of ATXN expression; also: nearly all actives have a fitted effect of over 55% in size
- details: HEK-293 CMV-luciferase reporter, luminescence, 24 h; series mostly up to 57.5 µM
Hit rate of the full screen: of about 2,100 compounds, about 670 (32%) were called active. Roughly 50% stayed inconclusive and do not appear here. Calls follow the shape of the dose curve; as a rule, active = well fitted inhibition curve with a large enough effect; inconclusive = small, poorly fitted or top-dose-only effect; inactive = no such curve, though single readings can be large or run the other way. The list shows a part of the results.
Use one of these outcomes when replying: true for active, false for inactive

// below: answered compounds
Cc1c(Cl)cccc1NC(=O)N1CCCN(c2nc(-c3ccccc3)ns2)CC1: true
CC(C)CCNC(=O)COc1cccc2c1OC(C)(C)C2: false
O=C(N/N=C/c1cc([N+](=O)[O-])ccc1O)c1cccc(N2CCCC2=O)c1: true
CCCc1cnc(NCCNCC(O)COc2ccc(Cl)c(Cl)c2)nc1 (stereo unspecified): true
O=C(N/N=C/c1ccc(O)cc1O)c1ccc(CN2C(=O)c3cccc4cccc2c34)cc1: true
O=C(N/N=C/c1cc(Cl)ccc1O)c1ccccc1Br: true
CCc1c(C)nc2ncnn2c1N1CCC(C(=O)Nc2ccc(C)cc2)CC1: true
CCN(CC)c1ccc(/C=C/c2cccc[n+]2C)c(OC)c1: true

What did the test return for `O=C(Nc1ccccc1N1CCN(C(=O)c2ccccc2)CC1)c1ccc(Br)o1` ?
true

What did the test return for `Cc1cc(C(=O)N/N=C/c2cc(Br)cc([N+](=O)[O-])c2O)c2ccccc2n1` ?
true
